# test-method-notes: Aqueous solubility of the compound at pH 1.2 by HPLC
# Assay type: physicochemical
solubility: recorded values
Use µg/mL as the unit, but write only the number.

Look over these answered cases.
CCC(CC)(NC(=O)c1cnn2c1N[C@@H](c1ccccc1)CC2(C)C)c1ccc(C)cc1.Cl = 5.4
CCC(CC)(NC(=O)c1c(C)nn2c1N[C@@H](c1ccccc1)CC2(C)C)c1ccc(C)cc1.Cl = 30
CCc1nn2c(c1C(=O)NC(CC)(CC)c1ccc(C)cc1)NC(c1ccccc1)CC2(C)C.Cl (racemic) = 7.8
CCCc1nn2c(c1C(=O)NC(CC)(CC)c1ccc(C)cc1)NC(c1ccccc1)CC2(C)C.Cl (racemic) = 3.1
CCCCc1nn2c(c1C(=O)NC(CC)(CC)c1ccc(C)cc1)NC(c1ccccc1)CC2(C)C.Cl (racemic) = 0.45

Request the reported solubility associated with CCC(CC)(NC(=O)c1c(C)nn2c1NC(c1ccccc1)CC2(C)C)c1ccc(C)cc1.Cl (racemic) 24
